- SYSTEM: hERG K+ channel (Homo sapiens)
- Sequence (Q12809 whole entry): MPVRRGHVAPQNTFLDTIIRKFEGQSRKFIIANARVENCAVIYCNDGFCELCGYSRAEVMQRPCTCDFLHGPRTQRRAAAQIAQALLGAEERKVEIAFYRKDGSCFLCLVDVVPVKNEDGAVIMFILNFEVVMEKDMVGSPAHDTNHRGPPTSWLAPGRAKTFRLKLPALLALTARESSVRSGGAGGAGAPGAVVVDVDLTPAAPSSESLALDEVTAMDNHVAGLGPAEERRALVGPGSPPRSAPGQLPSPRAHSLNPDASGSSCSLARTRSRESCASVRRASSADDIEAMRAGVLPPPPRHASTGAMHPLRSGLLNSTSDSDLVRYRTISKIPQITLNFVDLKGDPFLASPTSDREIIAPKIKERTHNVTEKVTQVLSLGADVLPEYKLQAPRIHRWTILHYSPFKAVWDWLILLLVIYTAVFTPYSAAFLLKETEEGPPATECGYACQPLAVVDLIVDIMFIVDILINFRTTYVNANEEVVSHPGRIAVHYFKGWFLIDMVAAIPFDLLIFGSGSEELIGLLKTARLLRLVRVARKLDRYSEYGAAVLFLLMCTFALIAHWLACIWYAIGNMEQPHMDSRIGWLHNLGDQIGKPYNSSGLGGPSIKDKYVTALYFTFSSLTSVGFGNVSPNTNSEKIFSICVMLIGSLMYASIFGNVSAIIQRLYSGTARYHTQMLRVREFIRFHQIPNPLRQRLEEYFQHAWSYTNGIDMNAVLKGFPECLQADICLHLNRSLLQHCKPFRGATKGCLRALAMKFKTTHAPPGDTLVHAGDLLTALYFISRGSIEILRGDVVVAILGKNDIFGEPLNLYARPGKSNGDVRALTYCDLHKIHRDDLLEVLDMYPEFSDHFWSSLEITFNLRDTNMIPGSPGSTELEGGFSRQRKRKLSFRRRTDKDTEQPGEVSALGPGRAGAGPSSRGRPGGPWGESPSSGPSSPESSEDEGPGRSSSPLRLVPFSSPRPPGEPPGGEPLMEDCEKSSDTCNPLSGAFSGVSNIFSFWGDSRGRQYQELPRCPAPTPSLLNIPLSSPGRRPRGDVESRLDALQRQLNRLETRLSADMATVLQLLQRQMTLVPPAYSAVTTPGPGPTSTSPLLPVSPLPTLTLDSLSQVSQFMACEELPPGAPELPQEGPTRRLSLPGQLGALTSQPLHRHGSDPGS
- PROTOCOL_NOTES: hERG inhibition assay
The molecules listed here are annotated with their IC50.

* CC(C)Nc1nnc(Nc2cc(CO)c(N3CCOCC3)c3nonc23)s1 [11a-isopropyl] | > 10 µM

Next item in the queue.
Request: IC50, test system hERG K+ channel (Homo sapiens), entry OCc1cc(Nc2nnc(N3CCCC3)s2)c2nonc2c1N1CCOCC1 [11a-pentyl]
> 10 µM
